Test system: SF-539 CNS
Test: NCI tumour cell line growth inhibition, 48 h; in the data active = GI50 below about 0.43 µM; inactive = the rest
I would appreciate it if you answered using one of these outcomes: active, inactive

Challenge: Short answer needed: outcome of this test for COc1cc2ncn(-c3cc(O[C@@H](C)c4ccccc4Cl)c(C(N)=O)s3)c2cc1OC ?
Response given: inactive

Challenge: Short answer needed: outcome of this test for COc1cc2c(cc1OC)-c1ccc3cc4c(cc3c1N(CCCn1ccnc1)C2)OCO4 ?
Response given: inactive

Challenge: Short answer needed: outcome of this test for COc1ccc(-c2oc(=O)ccc2-c2cc(OC)c(OC)c(OC)c2)cc1O ?
Response given: inactive

Challenge: Short answer needed: outcome of this test for N#CC1=C(N)Oc2c(ccc3ccccc23)C1c1ccccc1 (stereo not given) ?
Response given: active

Challenge: Short answer needed: outcome of this test for O=C1CC(=O)N(C(=O)c2nn(-c3ccc(Cl)cc3)cc2O)N1 ?
Response given: active

----------
System: COLO 205 colon
Assay: NCI tumour cell line growth inhibition, 48 h
Recorded measurements of TGI, one per entry
Return type: number; implicit unit µM.

# count of solved cases: 2
CC1=C[C@]2(O)C(=O)[C@H](C)C[C@H]3[C@@H](CC[C@@](C)(O)/C=C\2C1=O)C3(C)C : 30.6
COc1cccc(C2c3cc4c(cc3OC(N3CCOCC3)C2C)OCO4)c1OC (stereo unspecified) : 28.2

Value of TGI reported for the molecule C=C1C(=O)O[C@H]2[C@H]1CC/C(COC(=O)C(=O)c1cn(C)c3ccc(Cl)cc13)=C\CC[C@@]1(C)O[C@@H]21 is 4.2

Value of TGI reported for the molecule C=C(C)[C@@H]1CC[C@]2(C(=O)O)CC[C@]3(C)[C@H](CC[C@@H]4[C@@]5(C)CCC(NC(=O)c6cccc(OC(C)=O)c6OC(C)=O)C(C)(C)[C@@H]5CC[C@]43C)[C@@H]12 (stereo partly specified) is 1.9

Value of TGI reported for the molecule COC(=O)[C@]12CC[C@H]3CC[C@H]([C@H]31)[C@H](c1ccccc1)N2 is 30.8

Value of TGI reported for the molecule CCCCN1CN2C(=O)C(C(=O)OCC)C(=O)c3sc4nc(SC)nc1c4c32 (stereo unspecified) is 35.5

Value of TGI reported for the molecule Clc1nssc1=Nc1nonc1-c1ccccc1 is 36.7

----------
Tested on: RPMI-8226 leukemia
Assay: NCI tumour cell line growth inhibition, 48 h; in the data active = GI50 below about 0.43 µM; inactive = the rest
I would appreciate it if you answered using one of these outcomes: active, inactive

Example cases with answers are listed next.
Cc1ccc(NC2=C(Cl)C(=O)N(Cc3ccc(Cl)cc3)C2=O)cc1O : inactive
NC1CCC(Nc2nc(NCc3ccc(-c4ccccc4O)nc3)c3ncn(C4CCCC4)c3n2)CC1 (stereo not drawn) : active
CC(=O)[CH-]C(=O)c1ccccc1.CC(=O)[CH-]C(=O)c1ccccc1.CC(C)CCCC(C)[C@H]1CCC2[C@@H]3CC=C4C[C@@H]([O-])CC[C@]4(C)C3CC[C@@]21C.CC(C)CCCC(C)[C@H]1CCC2[C@@H]3CC=C4C[C@@H]([O-])CC[C@]4(C)C3CC[C@@]21C.[Ti+4] (stereo partly drawn) : inactive
O=C1NC(=O)C(c2ccccc2Cl)=C1Nc1cc(Cl)c(O)c(Cl)c1 : inactive
C[C@@H](O)[C@H](NC(=O)N[C@@H](CC(N)=O)c1nc([C@@H](N)CO)no1)C(=O)O : inactive

Challenge: Short answer needed: outcome of this test for Cc1cc(O)cc2c1[C@]1(C)CCC3C(C)(C)CCC[C@]3(C)[C@H]1C2 (stereo partly drawn) ?
Response given: inactive

Challenge: Short answer needed: outcome of this test for Cc1ccc2c(-c3ccnc(Nc4ccccc4)n3)c(-c3ccc(F)cc3)nn2n1 ?
Response given: inactive

Challenge: Short answer needed: outcome of this test for C/C(=N\Nc1cc(C)c2ccccc2n1)c1ccccn1 ?
Response given: active

----------
Recorded measurements of TGI, one per entry
Tested on: OVCAR-4 ovarian
Assay: NCI tumour cell line growth inhibition, 48 h
Return type: number; implicit unit µM.

# count of solved cases: 4
C/C(=N\Nc1cc(C)c2ccccc2n1)c1ccccn1 : 2.22
C#CC1(OC(C)=O)CCC2C3CC=C4C=C(OC(C)=O)CCC4(C)C3CCC21C (stereo not given) : 72.2
Nc1c2c(c(O)c3c1=C(CO)C=N3)=NCCS2 : 0.264
CC(=O)N1C/C(=C/c2ccc(Cl)cc2)C(=O)/C(=C/c2ccc(Cl)cc2)C1 : 3.22

// next item, TGI requested
Value of TGI reported for the compound CCCCCCCCCCCCCCCCCCN(C)C(COC)COP(=O)([O-])OCC[N+](C)(C)C (stereo not given) is 12.3

----------
System: M14 melanoma
Assay: NCI tumour cell line growth inhibition, 48 h; in the data active = GI50 below about 0.43 µM; inactive = the rest
I would appreciate it if you answered using one of these outcomes: 1 (active), 0 (inactive)

Example cases with answers are listed next.
c1cc(N2CCCN(c3ccc(C4=NCCCN4)cc3)CC2)ccc1C1=NCCCN1 : 0
C[C@@H](O)[C@H](NC(=O)N[C@@H](CC(N)=O)c1nc([C@@H](N)CO)no1)C(=O)O : 0
CCN(Cc1ccccc1)c1ccc(CO)c(Cl)c1 : 0
N#CC1=C(N)Oc2c(ccc3ccccc23)C1c1ccccc1 (stereo unspecified) : 1
O=C1CC(=O)N(C(=O)c2nn(-c3ccc(Cl)cc3)cc2O)N1 : 0

Now for another entry.
Challenge: Short answer needed: outcome of this test for CCCN(CCC)c1ccc(/C=C/c2ccc3cc(OCC)ccc3n2)cc1 ?
Response given: 0

----------
Recorded measurements of TGI, one per entry
Tested on: SF-268 CNS
Test: NCI tumour cell line growth inhibition, 48 h

C1CSCCSCCSCCSC1 : > 100 µM

Value of TGI reported for the compound O=C(N/N=C/c1c(-c2ccccc2)no[n+]1[O-])N1CCOCC1 is > 100 µM

Value of TGI reported for the compound Cc1nc(C(N)=S)sc1C(=O)CC(=O)C(=O)Nc1ccccc1[N+](=O)[O-] is > 100 µM

Value of TGI reported for the compound CN=c1c2c(c3[nH]c4ccccc4c4cnc1c34)NCCC2=O is > 10 µM

----------
Test system: SF-295 CNS
Test: NCI tumour cell line growth inhibition, 48 h
experimental_endpoint: TGI

# count of solved cases: 5
Cc1nc2sc(C(=O)Nc3cccc4ccccc34)c(N)c2cc1C(O)c1ccccc1 (stereo not given) : 4.42 µM
CNC(=O)c1ccc(N2C(=S)N(c3ccc(C#N)c(C(F)(F)F)c3)C(=O)C2(C)C)cc1F : > 75.9 µM
Cc1occc1C(=S)Nc1ccc(Cl)c(C(=O)OC(C(C)C)C(C)C)c1 : 18.5 µM
COc1ccc(NC([Se])=NC23CC4CC(CC(C4)C2)C3)cc1 : 4.15 µM
CC(=O)O/C=C1/C[C@H]2[C@@H]3CCC4CC(C(C)=O)CC[C@]4(C)[C@H]3CC[C@]2(C)C1=O (stereo not given in full) : > 100 µM

Value of TGI reported for the compound N#CC1=C(N)Oc2c(ccc3ccccc23)C1c1ccccc1 (stereo not given) is 11.6 µM

Value of TGI reported for the compound C=C1C(=O)OC2C1CCC(C)C1C=CC(=O)C12C (stereo not given) is 18.1 µM

Value of TGI reported for the compound CC(C)(Oc1ccccc1)C(=O)Sc1c(-c2ccccc2)c(=O)n(-c2ccccc2)c(=S)n1-c1ccccc1 is > 100 µM

Value of TGI reported for the compound O=C1c2ccccc2-c2oc(=O)c3ccccc3c21 is > 100 µM

Value of TGI reported for the compound c1ccc2c(NCCCCCCNc3c4ccccc4nc4ccccc34)c3ccccc3nc2c1 is 2.18 µM

----------
Test system: NCI-H522 lung
Assay: NCI tumour cell line growth inhibition, 48 h; in the data active = GI50 below about 0.43 µM; inactive = the rest
I would appreciate it if you answered using one of these outcomes: 1 (yes) (active), 0 (no) (inactive)

Example cases with answers are listed next.
COc1cc(N2CCC(N3CCN(C)CC3)CC2)ccc1Nc1ncnc(Nc2ccccc2S(=O)(=O)C(C)C)n1 : 0 (no)
CS(=O)(=O)CCNCc1ccc(-c2ccc3ncnc(Nc4ccc(OCc5ccccc5)c(Br)c4)c3c2)o1 : 0 (no)
Nc1c2c(c(O)c3c1=C(CO)C=N3)=NCCS2 : 1 (yes)
COc1ccc(/C(COc2ccc3c(=O)c(-c4ccccc4)coc3c2)=N\O)cc1 : 0 (no)
COc1cccc(/C=C/[N+](=O)[O-])c1 : 0 (no)

Challenge: Short answer needed: outcome of this test for C[C@@H](O)[C@H](NC(=O)N[C@@H](CC(N)=O)c1nc([C@@H](N)CO)no1)C(=O)O ?
Response given: 0 (no)

Challenge: Short answer needed: outcome of this test for CNC(=S)NC(=O)c1c(Cl)n(C(=O)OC(C)(C)C)c2ccccc12 ?
Response given: 0 (no)

Challenge: Short answer needed: outcome of this test for O=C1CC(=O)N(C(=O)c2nn(-c3ccc(Cl)cc3)cc2O)N1 ?
Response given: 1 (yes)

Challenge: Short answer needed: outcome of this test for C/C(=N\Nc1cc(C)c2ccccc2n1)c1ccccn1 ?
Response given: 1 (yes)

Challenge: Short answer needed: outcome of this test for Cc1ccc(Cc2cnc(NC(=O)/C=C/c3cccc(C)c3)s2)cc1 ?
Response given: 1 (yes)

Challenge: Short answer needed: outcome of this test for CC(C)[O-].CC(C)[O-].O=C1C=C([O-])C(=O)c2ccccc21.O=C1C=C([O-])C(=O)c2ccccc21.[Ti+4] ?
Response given: 0 (no)

Challenge: Short answer needed: outcome of this test for O=c1cc(N2CCN(CCCCCOc3cc(O)c4c(=O)cc(-c5ccccc5)oc4c3)CC2)c2ccccc2o1 ?
Response given: 0 (no)
